Where do the numbers come from? From patent US20240026017A1.

target of assay: T1, human CC chemokine receptor 1 (human CCR1) (human, UniProt P32246 1-355)
T1 construct: endogenous on THP-1 cells in the migration assays; also called hCCR1; CHO-S-hCCR1 (expressing cells)
T1 sequence: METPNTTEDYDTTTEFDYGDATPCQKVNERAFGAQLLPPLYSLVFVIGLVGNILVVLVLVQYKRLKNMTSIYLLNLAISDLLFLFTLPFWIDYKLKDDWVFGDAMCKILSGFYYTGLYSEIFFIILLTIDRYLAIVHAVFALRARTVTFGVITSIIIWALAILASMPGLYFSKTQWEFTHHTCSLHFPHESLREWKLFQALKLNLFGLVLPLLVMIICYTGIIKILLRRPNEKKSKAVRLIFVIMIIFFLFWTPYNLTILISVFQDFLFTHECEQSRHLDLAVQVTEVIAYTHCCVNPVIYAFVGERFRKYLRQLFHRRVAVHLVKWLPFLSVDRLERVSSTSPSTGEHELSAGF
protocol summary: flow cytometry on CHO-S-hCCR1 cells; bound = fluorescence 10 times or more that of isotype control hzDNP1
assay endpoint: binding result

>>> recorded_result("hzKM5907 LV2bHV2a antibody (antibody, V domains shown, humanized; also called hzmAb5907 LV2bHV2a) VH: EVQLLESGGGLVQPGGSLRLSCAASGFTFSRYGMSWVRQAPGKRLEWVSSISATFTYTYYTDNVKGRFTISRDNSKNTLYLQMNSLRAEDTAVYYCARQDNYAWFDSWGQGTLVTVSS VL: DIVMTQTPLSLPVTSGEPVSISCRSSQSIVHSNGNTFLEWYLKKPGQSPQLLIYKVSSRFSGVPDRFSGSGSGTDFTLKISRVEAEDVGVYYCFQGSHIPWTFGGGTKVEIK")
"binds"
